From: PubChem BioAssay (NCI)

# Test system: OVCAR-3 ovarian
# Assay Procedure: NCI tumour cell line growth inhibition, 48 h
Provide the reported TGI of each item.

Lookup: Request - read-out TGI | tested on OVCAR-3 ovarian | compound "COC(=O)NC(=O)c1cn(CCCOC(=O)CCCCCCCCC(=O)OCCCn2cc(C(=O)NC(=O)OC)c(=O)[nH]c2=O)c(=O)[nH]c1=O"
Found: > 100 µM

Lookup: Also check "CC(C)c1cccc(C(=O)NCCN(C)C)c1[N+](=O)[O-]"
Found: > 100 µM

Lookup: Also check "Cc1nc2ncn3c(c-2c1Cc1ccccc1)NC=C(O)N3"
Found: > 100 µM

Lookup: Also check "CN1CCN(c2ccc(NC3=C(Cl)C(=O)c4ncccc4C3=O)cc2C#N)CC1"
Found: 1 µM

Lookup: Also check "NC(=S)N/N=c1\cc(C(=O)Nc2ccc([N+](=O)[O-])cc2[N+](=O)[O-])oc2ccccc12"
Found: > 100 µM

Lookup: Also check C1=C(c2ccccc2)C(c2ccc(OCCN3CCCCC3)cc2)Oc2ccccc21 (stereo unspecified)
Found: 4.14 µM

Lookup: Also check CC(C(=O)c1ccc(Cl)cc1)C1OC(=O)C(Cl)=C1Cl (stereo unspecified)
Found: 71.9 µM

Lookup: Also check CC(=O)NC(CCCNC(=O)NCCCl)C(=O)NCc1ccccc1 (stereo unspecified)
Found: > 100 µM

Lookup: Also check "O=[N+]([O-])c1ccc(/C=C(/c2ccc([N+](=O)[O-])o2)S(=O)(=O)c2ccccc2)o1"
Found: 29 µM

Lookup: Also check "CC(=O)c1sc(Nc2ccc(Cl)c(Cl)c2)nc1C"
Found: > 100 µM

Lookup: Also check CC(O)(CNS(=O)(=O)c1ccccc1)c1ccccc1 (stereo unspecified)
Found: > 100 µM

Lookup: Also check CCCCCCCCCCCCCC(=O)C(C)N (stereo unspecified)
Found: 28.3 µM

Lookup: Also check "C#C[C@H](CCCC)OC(=O)N[C@H](C)c1ccccc1"
Found: > 100 µM

Lookup: Also check "N[C@@H]1CCCC[C@@H]1N.O=C([O-])CN(CP(=O)([O-])[O-])CP(=O)([O-])[O-].[Pt+2]"
Found: > 100 µM

Lookup: Also check "N#C/C(N)=C(\C#N)N=Cc1csc2ccccc12"
Found: 47.8 µM

Lookup: Also check "NCCP(=O)(O)O"
Found: > 100 µM

Lookup: Also check O=C(O)c1cc(O)c2c(c1)C([C@@H]1c3cccc(O)c3C(=O)c3c(O)cc(C(=O)O)cc31)c1cccc(O)c1C2=O (stereo partly specified)
Found: > 100 µM

Lookup: Also check "C/C(=N\Nc1nc2ccccc2o1)c1cc(C)ncn1"
Found: > 54.7 µM

Lookup: Also check O=S(=O)(O)/C(=C\c1ccccc1)c1ccccc1 (tested in a mixture with another compound)
Found: > 100 µM

Lookup: Also check "CC(=O)c1ccc2c(c1)N(CCCN1CCN(CCO)CC1)c1ccccc1C2"
Found: 29.5 µM

Lookup: Also check "Cn1c2ccccc2c2nc3ccccc3c(Cl)c21"
Found: > 100 µM

* * *

Provide the reported GI50 of each item.
# Tested on: U251 CNS
# Assay Procedure: NCI tumour cell line growth inhibition, 48 h

Lookup: # query: GI50 of entry "O=C(CNc1ncco1)Nc1ccc(S(=O)(=O)c2ccc(NC(=O)CNc3ncco3)cc2)cc1"
Found: 1.17 µM

Lookup: Also check "CCN(CC)CCOc1ccc2c(c1)C(=O)c1cc(OCCN(CC)CC)ccc1-2"
Found: 8.73 µM

Lookup: Also check "CN1CCN(c2ccc(NC3=C(Cl)C(=O)c4ncccc4C3=O)cc2C#N)CC1"
Found: 2.01 µM

Lookup: Also check CC1SC(c2c(Cl)cccc2Cl)N(NC(=O)C(O)c2ccccc2)C1=O (stereo unspecified)
Found: 54.1 µM

Lookup: Also check "C/C1=C\C/C=C(\C)[C@H]2CC(CC/C(C)=C/CC1)[C@](C)(C=O)O2"
Found: 43.9 µM

Lookup: Also check "Cc1nc2cc(Nc3nc(Nc4ccc(F)cc4)nc(N4CCN(C)CC4)n3)ccc2n1Cc1ccccc1"
Found: 1.35 µM

Lookup: Also check "N#C/C(N)=C(\C#N)N=Cc1csc2ccccc12"
Found: 20.2 µM

Lookup: Also check "CCOC(=O)N[C@H]1CCc2c(Br)c(OC)c(OC)c(OC)c2-c2ccc(SC)c(=O)cc21"
Found: < 0.01 µM

Lookup: Also check C[C@]12C3CC[C@@]4(CO)C[C@]3(CCC1[C@](C)(C(=O)O)CC[C@@H]2O)CC4=O (stereo partly specified)
Found: > 100 µM

Lookup: Also check "COc1ccc(C(=O)COc2cccc(/C=C3\CSc4ccc(Cl)cc4C3=O)c2)cc1"
Found: 2.13 µM

Lookup: Also check "O=S(=O)(NCCNc1cc(-c2cn(-c3ccccc3)nc2-c2cccc(O)c2)ccn1)c1ccc(Cl)cc1"
Found: 3.21 µM

* * *

# Tested on: SNB-78 CNS
# Assay Procedure: NCI tumour cell line growth inhibition, 48 h
Provide the reported TGI of each item.

Lookup: # query: TGI of entry "COC(=O)NC(=O)c1cn(CCCOC(=O)CCCCCCCCC(=O)OCCCn2cc(C(=O)NC(=O)OC)c(=O)[nH]c2=O)c(=O)[nH]c1=O"
Found: > 100 µM

Lookup: Also check "BrC1=CC=C2NCCCCCCN=C3C=CC(Br)=CC=C3NCCCCCCN=C2C=C1"
Found: > 25.5 µM

Lookup: Also check "Cc1nc(Nc2ccccc2)sc1C(=O)NNc1ccc([N+](=O)[O-])cc1[N+](=O)[O-]"
Found: > 100 µM

Lookup: Also check "CC(C)(Oc1ccc2c(=O)cc(-c3ccccc3)oc2c1)C(=O)Nc1c(Cl)cccc1Cl"
Found: > 100 µM

Lookup: Also check COc1ccc(C(=O)C(C(=O)C(=O)Nc2nccs2)c2ccc(OC)cc2)cc1 (centres undefined)
Found: > 100 µM

Lookup: Also check Cc1c2n(c3ccccc13)CC1CON(C)C21 (centres undefined)
Found: > 100 µM

Lookup: Also check COC(=O)C1N=CSCC1(C)O (centres undefined)
Found: > 100 µM

Lookup: Also check CN(C)CC1(Cc2ccccc2)CCC(Cc2ccccc2)C1=O (centres undefined)
Found: 43.4 µM

Lookup: Also check COc1ccc(N2C(=O)[C@@H]3[C@H](C2=O)c2[nH]c4ccccc4c2C2CCC(C(C)(C)C)C[C@@H]23)cc1 (some centres undefined)
Found: 59.5 µM

Lookup: Also check "COc1ccc(NC(=O)CC(=O)N/N=C/c2ccc(N(CCC#N)S(=O)(=O)c3ccccc3)cc2)cc1"
Found: > 100 µM

Lookup: Also check "COc1cc(C)c(C)c(OC(=O)c2c(C)c(C)c(OC)c(C)c2OC)c1C"
Found: > 100 µM

Lookup: Also check COc1ccc(C2c3cc4c(cc3OC(O)(CO)C2C(=O)O)OCO4)cc1 (centres undefined) (tested in a mixture with another compound)
Found: 59 µM

Lookup: Also check "C/C(CC(=O)NC1=CC=C(NC(=O)C/C(C)=N\Nc2ccccc2)CC1)=N/Nc1ccccc1"
Found: > 100 µM

Lookup: Also check "O=C(O)Cn1c(=O)[nH]c(=O)c2[nH]cnc21"
Found: > 100 µM

* * *

# Test system: SW-620 colon
# Assay Procedure: NCI tumour cell line growth inhibition, 48 h; in the data active = GI50 below about 0.43 µM; inactive = the rest
Pick one and only one: active, inactive

Lookup: Which outcome was entered for the molecule COc1cc(C2=NN(c3ccc(S(N)(=O)=O)cc3)C(c3ccc(Cl)cc3)C2)cc(OC)c1OC (centres undefined) in this test?
Found: inactive

Lookup: Also check CC(CN1CCN(CC(C)Nc2ccnc3cc(Cl)ccc23)CC1)Nc1ccnc2cc(Cl)ccc12 (centres undefined)
Found: inactive

Lookup: Also check "COc1ccc(-c2nnc(N3CCN(C(=O)CN4CCN(c5ccc(Cl)cc5)CC4)CC3)nc2-c2ccc(OC)cc2)cc1"
Found: inactive

Lookup: Also check "OCC#Cc1ccccc1C#Cc1ccc(C#Cc2ccccc2C#CCO)s1"
Found: inactive

Lookup: Also check "O=S(=O)(NCCNc1cc(-c2cn(-c3ccccc3)nc2-c2cccc(O)c2)ccn1)c1ccc(Cl)cc1"
Found: inactive

Lookup: Also check "[C-]#[N+][C@]12C(=O)[C@H](CCC1(C)C)C(C)(C)[C@H]1C(=O)N(C)c3cccc2c31"
Found: inactive

Lookup: Also check "CC(C)(C)OC(=O)CN1CCc2c(sc3ncnc(N/N=C/c4cccc5ccccc45)c23)C1"
Found: inactive

Lookup: Also check CNC(=O)OC1C(O[C@H]2C[C@H]3[C@@H]4CC=C5C[C@@H](O)CC[C@]5(C)[C@H]4CC[C@]3(C)[C@H]2[C@H](C)C(=O)CCC(C)C)OCC(O)C1OC1OCC(O)C(O)C1OC(=O)c1ccc(OC)cc1 (some centres undefined)
Found: active

Lookup: Also check "C[C@@H](Oc1ccc2[nH]nc(/C=C/c3cnn(CCO)c3)c2c1)c1c(Cl)cncc1Cl"
Found: active

Lookup: Also check "Nc1ccc2ccc(NS(=O)(=O)N3CCCCC3)cc2c1"
Found: active

Lookup: Also check CCCCCCCCCCCCCC(=O)C(C)N (centres undefined)
Found: inactive

Lookup: Also check "CCCCCCC#CC#Cc1cccc(=O)o1"
Found: inactive

Lookup: Also check "CC(=O)/C=C/C1=C(c2cccs2)c2ccccc2CC1"
Found: inactive

Lookup: Also check "CN1CCN(c2ccc(NC3=C(Cl)C(=O)c4ncccc4C3=O)cc2C#N)CC1"
Found: inactive
